Experiment: Clearance in dog at 20 umol/kg, po
Format: ADME, organism-based, Canis lupus familiaris
Details: in vivo
value.kind: CL/F (mL/min/kg)
Numbers only, in mL/min/kg.

[in] Item under review: CCc1ccc(S(=O)(=O)N[C@@H]2c3cc(NC(=O)c4cccc(OC)c4)ccc3C[C@H]2O)cc1 . Reported CL/F?
[out] 12

* * *

For each of the compounds below, state its pIC50.
Biological target: Potassium voltage-gated channel subfamily A member 5 (Homo sapiens, UniProt P22460)
Sequence (P22460 whole entry): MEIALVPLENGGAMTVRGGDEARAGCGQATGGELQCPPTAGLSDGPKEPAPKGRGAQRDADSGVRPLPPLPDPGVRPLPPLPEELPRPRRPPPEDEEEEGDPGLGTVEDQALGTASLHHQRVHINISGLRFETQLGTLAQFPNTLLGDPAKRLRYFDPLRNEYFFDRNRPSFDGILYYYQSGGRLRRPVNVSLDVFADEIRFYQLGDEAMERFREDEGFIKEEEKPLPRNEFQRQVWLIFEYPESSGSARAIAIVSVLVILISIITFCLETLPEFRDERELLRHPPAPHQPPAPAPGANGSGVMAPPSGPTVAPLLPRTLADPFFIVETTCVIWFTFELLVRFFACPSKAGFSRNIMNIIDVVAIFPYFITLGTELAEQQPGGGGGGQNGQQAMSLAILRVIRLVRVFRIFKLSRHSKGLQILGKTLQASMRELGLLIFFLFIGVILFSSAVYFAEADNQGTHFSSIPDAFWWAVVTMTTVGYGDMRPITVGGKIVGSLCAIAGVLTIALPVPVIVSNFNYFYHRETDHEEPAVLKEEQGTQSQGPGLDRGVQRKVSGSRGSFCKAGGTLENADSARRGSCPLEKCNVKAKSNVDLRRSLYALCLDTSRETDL
Assay: Inhibition of Kv1.5 channel mediated delayed rectifier potassium current by patch-clamp technique
Give bare numbers, as −log10 of the molar value.

Below, each entry is followed by its recorded pIC50 result.
[in] What value of measured pIC50 is listed for CCc1ccc(S(=O)(=O)N[C@@H]2c3c(cccc3NC(=O)c3cccc(OC)c3)C[C@H]2O)cc1 (racemic) ?
[out] 6.06

[in] Value lookup for pIC50; key = CCc1ccc(S(=O)(=O)N[C@@H]2c3cc(NC(=O)c4cccc(OC)c4)ccc3C[C@@H]2O)cc1 (racemic)
[out] 6.52

Would you mind giving pIC50 for every compound in the list below?
1. CCc1ccc(S(=O)(=O)NC2CCc3ccc(NC(=O)c4cccc(OC)c4)cc32)cc1 (racemic)
2. CCc1ccc(S(=O)(=O)N[C@@H]2c3cc(NC(=O)c4cccc(OC)c4)ccc3CCC[C@H]2O)cc1 (racemic)

[out]
6.82
6.70

* * *

Biological target: SCN5A (sodium channel protein type 5 subunit alpha) (Homo sapiens)
Sequence (Q14524 whole entry): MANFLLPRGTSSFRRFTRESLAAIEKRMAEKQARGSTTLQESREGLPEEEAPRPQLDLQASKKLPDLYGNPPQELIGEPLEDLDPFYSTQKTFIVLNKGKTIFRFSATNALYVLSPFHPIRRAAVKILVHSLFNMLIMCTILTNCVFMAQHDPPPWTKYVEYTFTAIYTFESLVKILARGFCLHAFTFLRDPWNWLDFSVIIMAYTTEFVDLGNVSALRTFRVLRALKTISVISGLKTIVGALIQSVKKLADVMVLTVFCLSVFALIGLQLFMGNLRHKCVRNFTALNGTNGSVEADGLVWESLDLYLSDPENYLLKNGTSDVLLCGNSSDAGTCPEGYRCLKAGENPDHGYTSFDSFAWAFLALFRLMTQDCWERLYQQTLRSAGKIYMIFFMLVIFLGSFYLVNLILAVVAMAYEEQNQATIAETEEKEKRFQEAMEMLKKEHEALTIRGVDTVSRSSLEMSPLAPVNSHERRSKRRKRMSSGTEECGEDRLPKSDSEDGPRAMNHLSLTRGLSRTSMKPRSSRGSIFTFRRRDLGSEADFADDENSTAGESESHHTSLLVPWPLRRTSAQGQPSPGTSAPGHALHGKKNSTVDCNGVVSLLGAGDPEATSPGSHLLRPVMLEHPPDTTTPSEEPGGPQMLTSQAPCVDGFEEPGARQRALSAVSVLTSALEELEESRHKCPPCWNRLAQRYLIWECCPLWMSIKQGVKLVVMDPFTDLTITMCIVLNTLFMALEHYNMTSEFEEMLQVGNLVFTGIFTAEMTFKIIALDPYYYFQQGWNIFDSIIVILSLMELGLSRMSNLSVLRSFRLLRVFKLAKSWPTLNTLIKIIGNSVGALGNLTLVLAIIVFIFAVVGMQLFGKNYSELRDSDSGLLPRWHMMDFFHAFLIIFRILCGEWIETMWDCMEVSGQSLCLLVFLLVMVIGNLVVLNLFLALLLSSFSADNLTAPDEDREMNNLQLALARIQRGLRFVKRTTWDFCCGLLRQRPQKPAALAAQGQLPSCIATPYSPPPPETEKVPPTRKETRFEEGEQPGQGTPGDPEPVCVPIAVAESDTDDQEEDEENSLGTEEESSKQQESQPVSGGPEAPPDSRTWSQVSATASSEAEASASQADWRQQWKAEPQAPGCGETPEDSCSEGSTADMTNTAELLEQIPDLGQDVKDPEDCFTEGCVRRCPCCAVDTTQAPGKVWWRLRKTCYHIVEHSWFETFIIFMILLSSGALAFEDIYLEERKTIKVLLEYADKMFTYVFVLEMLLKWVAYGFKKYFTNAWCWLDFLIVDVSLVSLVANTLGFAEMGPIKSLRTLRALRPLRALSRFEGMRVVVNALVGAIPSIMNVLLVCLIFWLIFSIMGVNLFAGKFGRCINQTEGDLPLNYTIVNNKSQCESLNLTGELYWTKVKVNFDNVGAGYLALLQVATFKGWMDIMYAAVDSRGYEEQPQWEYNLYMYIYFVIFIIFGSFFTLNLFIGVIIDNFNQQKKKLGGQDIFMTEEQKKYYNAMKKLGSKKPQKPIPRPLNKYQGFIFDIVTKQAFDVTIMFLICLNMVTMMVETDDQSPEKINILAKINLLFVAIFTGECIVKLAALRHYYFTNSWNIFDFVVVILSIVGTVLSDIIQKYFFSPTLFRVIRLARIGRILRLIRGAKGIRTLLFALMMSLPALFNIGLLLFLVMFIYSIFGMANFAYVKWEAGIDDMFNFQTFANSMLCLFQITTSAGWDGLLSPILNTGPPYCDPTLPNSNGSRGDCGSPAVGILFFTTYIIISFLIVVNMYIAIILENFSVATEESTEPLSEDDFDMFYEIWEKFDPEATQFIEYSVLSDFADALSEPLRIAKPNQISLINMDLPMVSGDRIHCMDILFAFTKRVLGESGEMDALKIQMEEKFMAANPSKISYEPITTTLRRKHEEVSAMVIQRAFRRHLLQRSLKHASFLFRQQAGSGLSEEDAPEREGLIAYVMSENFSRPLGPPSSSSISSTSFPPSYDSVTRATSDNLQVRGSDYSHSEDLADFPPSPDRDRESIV
Test: Inhibition of human SCN5A channel at 10 uM
value.kind: inhibition at 10 µM (%)
One number for each entry, in %.

[in] If you can, please state the reported inhibition at 10 µM value of CCc1ccc(S(=O)(=O)N[C@@H]2c3cc(NC(=O)c4cccc(OC)c4)ccc3C[C@H]2O)cc1 .
[out] 15

* * *

Assay: Half life in intra arterial infusion dosed dog at 10 umol/kg
Type: ADME, organism-based, Canis lupus familiaris
Conditions: in vivo
value.kind: half-life (h)
One number for each entry, in h.

[in] Returns the measured half-life for the input compound. Input: CCc1ccc(S(=O)(=O)N[C@@H]2c3cc(NC(=O)c4cccc(OC)c4)ccc3C[C@H]2O)cc1
[out] 1.5

* * *

Consider the following compounds; for each one, report its inhibition.
Target: Potassium voltage-gated channel subfamily A member 5 (Homo sapiens)
Experiment: Inhibition of Kv1.5 channel mediated delayed rectifier potassium current at 1 uM by patch-clamp technique

[in] Entry CCc1ccc(S(=O)(=O)N[C@@H]2c3cccc(NC(=O)c4cccc(OC)c4)c3C[C@H]2O)cc1 (racemic) has what inhibition?
[out] 17%

[in] Any idea what inhibition was measured for CCc1ccc(S(=O)(=O)N[C@@H]2c3ccccc3C[C@H]2O)cc1 (racemic) ?
[out] 3%

[in] Please give the measured inhibition for this compound: CCc1ccc(S(=O)(=O)N[C@@H]2c3ccc(NC(=O)c4cccc(OC)c4)cc3C[C@H]2O)cc1 (racemic)
[out] 24%

Let us examine a further case.
[in] Would you kindly share the measured inhibition for CCc1ccc(S(=O)(=O)N[C@@H]2c3cc(N)ccc3C[C@H]2O)cc1 (racemic) ?
[out] 2%

* * *

Assay: Aqueous solubility of the compound
Format: physicochemical
Conditions: buffer; read-out: Solubility
value.kind: solubility (µg/mL)
Answers are plain numbers, in µg/mL.

[in] Which solubility is listed for CCc1ccc(S(=O)(=O)NCc2cccc(NC(=O)c3cccc(OC)c3)c2)cc1 ?
[out] 0.8

* * *

Assay: Oral bioavailability in rat at 20 umol/kg
Type: ADME, organism-based
Details: in vivo
value.kind: bioavailability

[in] I have this compound here, CCc1ccc(S(=O)(=O)N[C@@H]2c3cc(NC(=O)c4cccc(OC)c4)ccc3C[C@H]2O)cc1 , and I need its recorded bioavailability.
[out] 1%

* * *

Experiment: Half life in intra arterial infusion dosed rat at 10 umol/kg
Format: ADME, organism-based
Conditions: in vivo
value.kind: half-life (min)
Numbers only, in min.

[in] May I ask what half-life has been recorded for CCc1ccc(S(=O)(=O)N[C@@H]2c3cc(NC(=O)c4cccc(OC)c4)ccc3C[C@H]2O)cc1 ?
[out] 24

* * *

Assay: Clearance in rat at 20 umol/kg, po
Assay type: ADME, organism-based
Conditions: in vivo
value.kind: CL/F (mL/min/kg)
Give bare numbers, in mL/min/kg.

[in] Using the record for CCc1ccc(S(=O)(=O)N[C@@H]2c3cc(NC(=O)c4cccc(OC)c4)ccc3C[C@H]2O)cc1 , report its CL/F.
[out] 200

* * *

Biological target: hERG (KCNH2) (Homo sapiens, UniProt Q12809)
Sequence (Q12809 whole entry): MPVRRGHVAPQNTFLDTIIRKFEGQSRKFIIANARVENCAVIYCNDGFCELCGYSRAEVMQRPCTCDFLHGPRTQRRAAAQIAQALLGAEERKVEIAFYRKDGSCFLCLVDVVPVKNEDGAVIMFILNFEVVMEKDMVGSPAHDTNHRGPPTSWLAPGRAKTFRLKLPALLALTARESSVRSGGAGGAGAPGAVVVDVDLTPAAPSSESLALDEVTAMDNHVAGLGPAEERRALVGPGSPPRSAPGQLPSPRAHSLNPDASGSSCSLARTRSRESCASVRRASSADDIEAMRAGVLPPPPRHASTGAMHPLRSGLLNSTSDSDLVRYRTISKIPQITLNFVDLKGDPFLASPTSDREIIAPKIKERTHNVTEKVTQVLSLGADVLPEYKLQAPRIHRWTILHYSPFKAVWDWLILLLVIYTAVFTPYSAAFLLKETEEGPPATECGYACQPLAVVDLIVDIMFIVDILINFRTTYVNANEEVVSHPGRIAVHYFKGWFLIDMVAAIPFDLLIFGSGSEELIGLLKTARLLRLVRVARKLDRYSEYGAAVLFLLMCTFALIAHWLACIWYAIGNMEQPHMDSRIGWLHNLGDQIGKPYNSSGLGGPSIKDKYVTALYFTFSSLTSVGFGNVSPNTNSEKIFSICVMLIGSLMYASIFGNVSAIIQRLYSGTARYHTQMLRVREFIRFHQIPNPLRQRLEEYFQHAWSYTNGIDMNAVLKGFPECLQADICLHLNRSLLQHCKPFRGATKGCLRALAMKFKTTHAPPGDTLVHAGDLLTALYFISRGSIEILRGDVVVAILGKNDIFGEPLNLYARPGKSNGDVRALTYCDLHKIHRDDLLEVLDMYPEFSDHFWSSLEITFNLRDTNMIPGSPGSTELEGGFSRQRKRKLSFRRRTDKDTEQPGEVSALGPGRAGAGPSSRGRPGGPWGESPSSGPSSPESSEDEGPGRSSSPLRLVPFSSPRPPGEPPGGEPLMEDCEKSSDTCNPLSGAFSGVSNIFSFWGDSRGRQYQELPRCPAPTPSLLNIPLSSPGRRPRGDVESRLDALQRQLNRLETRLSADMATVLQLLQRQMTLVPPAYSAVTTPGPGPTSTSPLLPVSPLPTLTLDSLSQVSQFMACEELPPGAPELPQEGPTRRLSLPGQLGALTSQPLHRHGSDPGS
Assay: Inhibition of hERG at 10 uM
Assay type: toxicity
value.kind: inhibition at 10 µM (%)
Numbers only, in %.

[in] Provide the documented inhibition at 10 µM with hERG (KCNH2) (Homo sapiens, UniProt Q12809) as the system for CCc1ccc(S(=O)(=O)N[C@@H]2c3cc(NC(=O)c4cccc(OC)c4)ccc3C[C@H]2O)cc1
[out] 37

* * *

Biological target: Potassium voltage-gated channel subfamily A member 5 (Homo sapiens, UniProt P22460)
Assay: Inhibition of Kv1.5 channel mediated delayed rectifier potassium current by patch-clamp technique
Consider the following compounds; for each one, report its pIC50.
Give bare numbers, as −log10 of the molar value.

Sample answers from the record:
[in] For the compound CCc1ccc(S(=O)(=O)N[C@H]2c3cc(NC(=O)c4cccc(OC)c4)ccc3C[C@@H]2O)cc1 , what pIC50 is on record?
[out] 6.12

[in] Consider the compound CCc1ccc(S(=O)(=O)NCc2cccc(NC(=O)c3cccc(OC)c3)c2)cc1 and give its measured pIC50.
[out] 6.62

[in] What pIC50 value was documented for this compound, CCc1ccc(S(=O)(=O)N[C@@H]2c3cc(NC(=O)c4cccc(OC)c4)ccc3C[C@H]2O)cc1 (racemic) ?
[out] 6.80

[in] Would you kindly share the measured pIC50 for CCc1ccc(S(=O)(=O)N[C@@H]2c3cc(NC(=O)c4cccc(OC)c4)ccc3C[C@H]2O)cc1 ?
[out] 7.48

Moving on to the next compound.
[in] Name the reported pIC50 value associated with the compound CCc1ccc(S(=O)(=O)N[C@@H]2c3cc(NC(=O)c4cccc(OC)c4)ccc3CC[C@H]2O)cc1 (racemic)
[out] 6.36
